experiment_description: Inhibition of bakers yeast alpha-glucosidase by spectrophotometry
Design: species or system Saccharomyces cerevisiae
Give measured IC50 for each item. Keep answers brief.

// worked examples, IC50 included
[[record]]
molecule = "CC(C)=CCc1c2c(c(O)c3c(=O)c4cc(O)c(O)cc4oc13)C(C)(C)C(C)O2 (centres undefined)"
result = "32 µM"

[[record]]
molecule = "C=CC(C)(C)c1c(O)c(CC=C(C)C)c2oc3cc(O)c(O)cc3c(=O)c2c1O"
result = "38.2 µM"

[[record]]
molecule = "C=CC(C)(C)c1c(O)cc(O)c2c(=O)c3c(CC=C(C)C)c(O)c(O)cc3oc12"
result = "37.7 µM"


Give IC50 for CC(C)=CCc1c(O)c(O)cc2c(=O)c3c(O)c4c(cc3oc12)OC(C)C4(C)C (centres undefined) > 100 µM

Sourced from ChEMBL document CHEMBL1140575
